- Settings: 298.15 K; 101.33 kPa; Liquid; Sing-around technique in a fixed-path interferometer
Parameter measured: speed of sound (m/s)

CN(C)C=O [dimethylformamide]: 1457.7
CCCCCCCCO: 1347.8
CCCCCCCCCCO: 1380
CCCCCCCCCO: 1365.5

---

- Settings: 308.15 K; 101 kPa; Liquid; Vibrating tube method
Parameter measured: mass density (kg/m3)

CCCCCCCCO: 814.742
CCCCCCCCCCO: 819.427
CN(C)C=O [dimethylformamide]: 934.721
CCCCCCCCCO: 817.582

---

- Settings: 303.15 K; 101 kPa; Liquid; Vibrating tube method
Parameter measured: mass density (kg/m3)

CN(C)C=O [dimethylformamide]: 939.047
CCCCCCCCCCO [decan-1-ol]: 822.853
CCCCCCCCO [octan-1-ol]: 818.209
CCCCCCCCCO [nonan-1-ol]: 821.044

---

- Test: refractive index (Na D-line) (dimensionless)
- Settings: 298.15 K; 101.33 kPa; Liquid; Standard Abbe refractometry
Parameter measured: refractive index

CN(C)C=O [dimethylformamide]: 1.428
CCCCCCCCCCO: 1.4348
CCCCCCCCCO: 1.4319
CCCCCCCCO: 1.4273

---

- Settings: 298.15 K; 101.33 kPa; Liquid; Vibrating tube method
Parameter measured: mass density (kg/m3)

CN(C)C=O [dimethylformamide]: 944.29
CCCCCCCCO: 821.222
CCCCCCCCCCO: 826.562
CCCCCCCCCO: 824.478

---

- Settings: 313.15 K; 101 kPa; Liquid; Vibrating tube method
Parameter measured: mass density (kg/m3)

CCCCCCCCO [octan-1-ol]: 810.629
CN(C)C=O [dimethylformamide]: 929.478
CCCCCCCCCCO [decan-1-ol]: 816.383
CCCCCCCCCO [nonan-1-ol]: 814.098
